- Tested on: DOK;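 further: cell viability assay read-out, values reflect inhibition of cell growth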
- procedure_summary: cells
- Assay type: functional, cell-based, Homo sapiens
- settings: Homo sapiens, DOK
- Description: SANGER: Inhibition of human DOK cell growth in a cell viability assay.
The entries below are paired with their reported pIC50.
Interpret pIC50 as the negative base-10 log of the concentration measured in mol/L.

Find the recorded pIC50 belonging to Cn1cnc2c(F)c(Nc3ccc(Br)cc3Cl)c(C(=O)NOCCO)cc21 and report it.
6.83

Now the molecule CC(C)c1ccccc1Cc1cc(C(=O)Nc2ccc(S(=O)(=O)c3ccccc3C(C)(C)C)cc2)c(O)c(O)c1O
5.87

Now the molecule CO[C@H]1C[C@@H]2CC[C@@H](C)[C@@](O)(O2)C(=O)C(=O)N2CCCC[C@H]2C(=O)O[C@H]([C@H](C)C[C@@H]2CC[C@@H](OC(=O)C(C)(CO)CO)[C@H](OC)C2)CC(=O)[C@H](C)/C=C(\C)[C@@H](O)[C@@H](OC)C(=O)[C@H](C)C[C@H](C)/C=C/C=C/C=C/1C
7.39

Now the molecule COc1cccc2c1C(=O)c1c(O)c3c(c(O)c1C2=O)C[C@@](O)(C(=O)CO)C[C@@H]3O[C@H]1C[C@H](N)[C@H](O)[C@H](C)O1
5.99

###

- Tested on: MHH-ES-1;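 further: cell growth inhibition measured by a cell viability assay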
- procedure_summary: cells
- Format: functional, cell-based, Homo sapiens
- settings: mhh-es-1
- Description: SANGER: Inhibition of human MHH-ES-1 cell growth in a cell viability assay.
quantity: IC50 (µM)
Give just the number in µM; leave the unit off.

Find the recorded IC50 belonging to CISPLATIN and report it.
55

###

- Tested on: Panc1005
- procedure_summary: cells
- Format: functional, cell-based, Homo sapiens
- settings: Homo sapiens, Panc1005
- Description: SANGER: Inhibition of human PANC-10-05 cell growth in a cell viability assay.
quantity: IC50 (µM)
Give just the number in µM; leave the unit off.

Item: O=C(O)c1ccc(-c2c[nH]c3ncc(-c4ccccc4)cc23)cc1C1CCCC1 Test system: Panc1005 Read-out: IC50 Value: ?
11.4

Continuing:
Item: Cc1cc([N+](=O)[O-])ccc1NS(=O)(=O)c1cc(Cl)ccc1Cl Test system: Panc1005 Read-out: IC50 Value: ?
5.37

###

- Test system: TE-6
- procedure_summary: cells
- Assay type: functional, cell-based, Homo sapiens
- settings: Homo sapiens, TE-6
- Description: SANGER: Inhibition of human TE-6 cell growth in a cell viability assay.
pIC50: −log10 of the molar value.
quantity: pIC50

Guide cases for pIC50, answers given:
Item: Nc1cccc2c1CN(C1CCC(=O)NC1=O)C2=O (stereo not drawn) [LENALIDOMIDE] Test system: TE-6 Read-out: pIC50 Value: ?
< 5.30

Now the compound CC(C)CCN1c2nc(Nc3cc(F)c(O)c(F)c3)ncc2N(C)C(=O)C1C (stereo not drawn)
< 5.30

Now the compound CS(=O)(=O)c1ccc(C(=O)Nc2ccc(Cl)c(-c3ccccn3)c2)c(Cl)c1 [VISMODEGIB]
< 5.00

Continuing:
Item: Cc1ccc(-c2c(C(=O)CCl)n(CCCO)c3ncnc(N)c23)cc1 Test system: TE-6 Read-out: pIC50 Value: ?;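 further: growth inhibition of TE-6 cells, read out with a cell viability assay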
< 5.40

Now the compound N[C@@H](CSC(c1ccccc1)(c1ccccc1)c1ccccc1)C(=O)O [S-TRITYL-L-CYSTEINE]
5.41

Now the compound CCN(CC)CCCCNc1ncc2cc(-c3cc(OC)cc(OC)c3)c(NC(=O)NC(C)(C)C)nc2n1 [PD-173074]
< 5.70

Now the compound Nc1ccn([C@@H]2O[C@H](CO)[C@@H](O)C2(F)F)c(=O)n1 [GEMCITABINE]
6.60

Now the compound C=C(c1ccc(C(=O)O)cc1)c1cc2c(cc1C)C(C)(C)CCC2(C)C [BEXAROTENE]
< 5.10

###

- Tested on: SNU-387
- procedure_summary: cells
- Assay type: functional, cell-based, Homo sapiens
- settings: Homo sapiens, SNU-387
- Description: SANGER: Inhibition of human SNU-387 cell growth in a cell viability assay.
pIC50: −log10 of the molar value.
quantity: pIC50

Find the recorded pIC50 belonging to CC1(C)CNc2cc(NC(=O)c3cccnc3NCc3ccncc3)ccc21 and report it.
< 5.70

###

- System: EFE-184
- procedure_summary: cells
- Assay type: functional, cell-based, Homo sapiens
- settings: efe-184
- Description: SANGER: Inhibition of human EFE-184 cell growth in a cell viability assay.
quantity: pIC50
Interpret pIC50 as the negative base-10 log of the concentration measured in mol/L.

Find the recorded pIC50 belonging to BLEOMYCIN and report it.
3.42

###

- Tested on: KINGS-1;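 further: cell viability assay measuring suppression of KINGS-1 cell growth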
- procedure_summary: cells
- Format: functional, cell-based, Homo sapiens
- settings: Homo sapiens, KINGS-1
- Description: SANGER: Inhibition of human KINGS-1 cell growth in a cell viability assay.
pIC50: −log10 of the molar value. Where a name gives a salt, the structure may show the parent alone.
quantity: pIC50

Guide cases for pIC50, answers given:
Find the recorded pIC50 belonging to CCN(CC)CCNC(=O)c1c(C)[nH]c(/C=C2\C(=O)Nc3ccc(F)cc32)c1C and report it.
< 5.10

Now the compound COC1=CC(c2cc3ccccc3[nH]2)=N/C1=C\c1[nH]c(C)cc1C [OBATOCLAX MESYLATE]
6.08

Now the compound COc1cc2c(Nc3ccc(NC(=O)c4ccccc4)cc3)ncnc2cc1OCCCN1CCOCC1
< 5.40

Now the compound Nc1cccc2c1CN(C1CCC(=O)NC1=O)C2=O (stereo not given) [LENALIDOMIDE]
< 5.30

Now the compound CC1(C)CNc2cc(NC(=O)c3cccnc3NCc3ccncc3)ccc21
< 5.70

Now the compound OCCCNc1cc(-c2ccnc(Nc3cccc(Cl)c3)n2)ccn1
6.99

Continuing:
Find the recorded pIC50 belonging to Cc1ccc(-c2c(C(=O)CCl)n(CCCO)c3ncnc(N)c23)cc1 and report it.
< 5.40

Now the compound CN(C)C(=N)NC(=N)N
< 1.70

Now the compound CC(C)c1ccccc1Cc1cc(C(=O)Nc2ccc(S(=O)(=O)c3ccccc3C(C)(C)C)cc2)c(O)c(O)c1O
5.56

Now the compound Nc1ccn([C@@H]2O[C@H](CO)[C@@H](O)C2(F)F)c(=O)n1
< 5.99

###

- System: OPM-2
- procedure_summary: cells
- Assay type: functional, cell-based, Homo sapiens
- settings: opm-2
- Description: SANGER: Inhibition of human OPM-2 cell growth in a cell viability assay.
quantity: IC50 (µM)
Give just the number in µM; leave the unit off.

Item: BLEOMYCIN Test system: OPM-2 Read-out: IC50 Value: ?;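 further: growth of OPM-2 cells measured with a viability assay, IC50 for suppression of proliferation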
104

###

- System: no-10
- procedure_summary: cells
- Type: functional, cell-based, Homo sapiens
- settings: Homo sapiens
- Description: SANGER: Inhibition of human no-10 cell growth in a cell viability assay.
pIC50: −log10 of the molar value.
The entries below are paired with their reported pIC50.

Guide cases for pIC50, answers given:
Item: CC1(C)CNc2cc(NC(=O)c3cccnc3NCc3ccncc3)ccc21 Test system: no-10 Read-out: pIC50 Value: ?
< 5.70

Now the compound Cc1ccc(-c2c(C(=O)CCl)n(CCCO)c3ncnc(N)c23)cc1
< 5.40

Now the compound CC(C)CCN1c2nc(Nc3cc(F)c(O)c(F)c3)ncc2N(C)C(=O)C1C (stereo unspecified)
< 5.30

Now the compound CC(=O)O[C@H]1C(=O)[C@@]2(C)[C@H]([C@H](OC(=O)c3ccccc3)[C@]3(O)C[C@H](OC(=O)[C@H](O)[C@@H](NC(=O)c4ccccc4)c4ccccc4)C(C)=C1C3(C)C)[C@]1(OC(C)=O)CO[C@@H]1C[C@@H]2O
8.44

Now the compound Nc1ccn([C@@H]2O[C@H](CO)[C@@H](O)C2(F)F)c(=O)n1
6.76

Here's the next entry for you.
Item: Cn1cnc2c(F)c(Nc3ccc(Br)cc3Cl)c(C(=O)NOCCO)cc21 Test system: no-10 Read-out: pIC50 Value: ?
< 5.40

###

The entries below are paired with their reported IC50.
- Test system: NCI-H1770
- procedure_summary: cells
- Assay type: functional, cell-based, Homo sapiens
- settings: Homo sapiens, NCI-H1770
- Description: SANGER: Inhibition of human NCI-H1770 cell growth in a cell viability assay.

Guide cases for IC50, answers given:
Item: CCN(CC)CCNC(=O)c1c(C)[nH]c(/C=C2\C(=O)Nc3ccc(F)cc32)c1C Test system: NCI-H1770 Read-out: IC50 Value: ?
> 8 µM

Now the compound Cn1cnc2c(F)c(Nc3ccc(Br)cc3Cl)c(C(=O)NOCCO)cc21
> 4 µM

Now the compound Cc1cc([N+](=O)[O-])ccc1NS(=O)(=O)c1cc(Cl)ccc1Cl
17.1 µM

Now the compound Nc1cccc2c1CN(C1CCC(=O)NC1=O)C2=O (stereo unspecified) [LENALIDOMIDE]
> 5 µM

Now the compound CC(C)CCN1c2nc(Nc3cc(F)c(O)c(F)c3)ncc2N(C)C(=O)C1C (stereo unspecified)
> 5 µM

Here's the next entry for you.
Item: CO[C@H]1C[C@@H]2CC[C@@H](C)[C@@](O)(O2)C(=O)C(=O)N2CCCC[C@H]2C(=O)O[C@H]([C@H](C)C[C@@H]2CC[C@@H](OC(=O)C(C)(CO)CO)[C@H](OC)C2)CC(=O)[C@H](C)/C=C(\C)[C@@H](O)[C@@H](OC)C(=O)[C@H](C)C[C@H](C)/C=C/C=C/C=C/1C Test system: NCI-H1770 Read-out: IC50 Value: ?;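 further: growth inhibition of NCI-H1770 cells determined with a viability readout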
> 0.2 µM

###

The entries below are paired with their reported pIC50.
- Tested on: OAW-28
- procedure_summary: cells
- Format: functional, cell-based, Homo sapiens
- settings: Homo sapiens, OAW-28
- Description: SANGER: Inhibition of human OAW-28 cell growth in a cell viability assay.
pIC50: −log10 of the molar value.

Guide cases for pIC50, answers given:
Find the recorded pIC50 belonging to Nc1cccc2c1CN(C1CCC(=O)NC1=O)C2=O (stereo not given) [LENALIDOMIDE] and report it.
< 5.30

Now the compound CCN(CC)CCCCNc1ncc2cc(-c3cc(OC)cc(OC)c3)c(NC(=O)NC(C)(C)C)nc2n1 [PD-173074]
< 5.70

Now the compound CC(C)CCN1c2nc(Nc3cc(F)c(O)c(F)c3)ncc2N(C)C(=O)C1C (stereo not given)
< 5.30

Now the compound CS(=O)(=O)c1ccc(C(=O)Nc2ccc(Cl)c(-c3ccccn3)c2)c(Cl)c1 [VISMODEGIB]
< 5.00

Here's the next entry for you.
Find the recorded pIC50 belonging to COc1cccc2c1C(=O)c1c(O)c3c(c(O)c1C2=O)C[C@@](O)(C(=O)CO)C[C@@H]3O[C@H]1C[C@H](N)[C@H](O)[C@H](C)O1 [DOXORUBICIN] and report it.
6.75
